// data source = PubChem BioAssay (NCI)

Measured TGI of individual entries
tested on: LXFL 529 NSCLC; experiment: NCI tumour cell line growth inhibition, 48 h
measurement_kind: TGI

{"compound": "COC(=O)[C@H]1[C@H]2C[C@@H]3c4[nH]c5cc(OC)ccc5c4CCN3C[C@H]2C[C@@H](OC(=O)c2cc(OC)c(OC)c(OC)c2)[C@@H]1OC", "measured_target": "LXFL 529 NSCLC", "measurement_kind": "TGI", "observed_result": "35.7 µM"}
{"compound": "CC1(C)OC(=O)[C@@](C)([C@H](O)c2ccccc2)O1", "measured_target": "LXFL 529 NSCLC", "measurement_kind": "TGI", "observed_result": "> 100 µM"}
{"compound": "O=C(CC(=O)c1ccc([N+](=O)[O-])cc1)C(=O)Nc1nccs1", "measured_target": "LXFL 529 NSCLC", "measurement_kind": "TGI", "observed_result": "> 100 µM"}
{"compound": "O=C1c2cccc3cc([N+](=O)[O-])cc(c23)C(=O)N1NC1=NCCN1", "measured_target": "LXFL 529 NSCLC", "measurement_kind": "TGI", "observed_result": "> 100 µM"}
{"compound": "CC1=C(C)C(=O)C2=C(OCCCO2)C1=O", "measured_target": "LXFL 529 NSCLC", "measurement_kind": "TGI", "observed_result": "31.9 µM"}
{"compound": "CC(=O)OCCOCNC(=S)N/N=C/c1ccc2ccccc2n1", "measured_target": "LXFL 529 NSCLC", "measurement_kind": "TGI", "observed_result": "> 100 µM"}
{"compound": "COc1cc(=O)oc(/C=C/C=O)c1C", "measured_target": "LXFL 529 NSCLC", "measurement_kind": "TGI", "observed_result": "32.4 µM"}
{"compound": "COc1ccc(C2=Nc3ccccc3SC(C)C2)cc1 (stereo not given)", "measured_target": "LXFL 529 NSCLC", "measurement_kind": "TGI", "observed_result": "> 100 µM"}
{"compound": "CC(=O)[CH-]C(=O)c1ccccc1.CC(=O)[CH-]C(=O)c1ccccc1.COc1cccc([O-])c1[O-].[Ti+4]", "measured_target": "LXFL 529 NSCLC", "measurement_kind": "TGI", "observed_result": "> 100 µM"}
{"compound": "CC1=CCC2(C#N)CCC1C2O (stereo not given)", "measured_target": "LXFL 529 NSCLC", "measurement_kind": "TGI", "observed_result": "> 100 µM"}

====

Measured TGI of individual entries
system: SF-268 CNS; experiment: NCI tumour cell line growth inhibition, 48 h
measurement_kind: TGI (µM)

{"compound": "N=C(N)C1CN(CCc2cnc[nH]2)C(=O)NC1=O (centres undefined)", "qual": ">", "observed_result": 100}
{"compound": "CC(=O)OCCOCNC(=S)N/N=C/c1ccc2ccccc2n1", "qual": ">", "observed_result": 100}
{"compound": "Cc1nc(Cl)c2sc(=S)n(-c3ccc(F)cc3)c2n1", "qual": "=", "observed_result": 5.29}
{"compound": "Cc1c(/C=N/NC(=S)Nc2cccc(Cl)c2)c(=O)n(-c2ccccc2)n1C", "qual": "=", "observed_result": 36.7}

====

Measured GI50 of individual entries
tested on: PC-3 prostate; experiment: NCI tumour cell line growth inhibition, 48 h
measurement_kind: GI50

{"smiles_entry": "CN1CCN(c2ccc(-c3ccc4ncc(C#N)c(Nc5ccc(F)c(Cl)c5)c4c3)cc2)CC1", "observed_result": "2080 nM"}
{"smiles_entry": "CCCCN(CCCC)c1ccc(C(=N)c2ccc(N(C)C)cc2)cc1", "observed_result": "409 nM"}
{"smiles_entry": "N#CC(C#N)=Cc1c(-c2ccccc2)[nH]c2ccccc12", "observed_result": "2900 nM"}
